- assayed.system: T1, human TSH receptor (full length), coated on tubes (human, UniProt P16473 22-764)
- T1 construct: TSHR coated tubes as described in WO2004/050708A2; The receptor is full length and held on plastic tubes through a mouse MAb to the TSHR; also called thyroid stimulating hormone receptor
- protocol.notes: inhibition of 125I-K1-70 Fab (competitor) binding to TSHR coated tubes; 3 µg/mL in assay buffer
measured.property: Inhibition of binding (%)

binder	measured.property	obs.value
K1-18 Fab (Fab, V domains shown) VH: EVQLVQSGAEVKKPGESLKISCKGSGYSFTNYWIGWVRQMPGKGLEWMGIIYPYDSDTRYSPSFEGQVTISADKSIRTAYLHWSSLKASDTAMYYCVRPRDGSYPYDAFDIWGQGTMVTVSS VL: EIVLTQSPGTLSLSPGERATLSCRASQSVSNNYLAWYQQKPGQAPRLLIYGASSRATGIPDRFSGSGSGTDFTLTISRLEPEDFAVYYCQHCGSSLRAFGQGTKVEIKR	Inhibition of binding (%)	80.6%
K1-18 IgG (antibody, V domains shown, Human IgG1 kappa purified from hetero-hybridoma supernatant; also called human monoclonal autoantibody to the TSHR with TSH agonist activity) VH: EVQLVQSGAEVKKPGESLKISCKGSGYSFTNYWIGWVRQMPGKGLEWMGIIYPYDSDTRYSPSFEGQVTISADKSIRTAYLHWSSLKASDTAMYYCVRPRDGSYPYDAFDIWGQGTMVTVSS VL: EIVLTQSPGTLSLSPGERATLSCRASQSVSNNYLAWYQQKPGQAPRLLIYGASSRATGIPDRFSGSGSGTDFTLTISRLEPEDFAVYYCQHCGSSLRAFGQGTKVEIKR	Inhibition of binding (%)	93.3%
K1-70 IgG (antibody, V domains shown, Human IgG1 lambda purified from hetero-hybridoma supernatant; also called human monoclonal autoantibody to the TSHR with TSH antagonist activity) VH: EVQLVQSGAEVKKPGQSLKISCKASGYSLTDNWIGWVRQKPGKGLEWMGIIYPGDSDTRYSPSFQGQVTISADKSINTAYLQWSSLKASDTAIYYCVGLDWNYNPLRYWGPGTLVTVSS VL: QSVLTQPPSVSAAPGQKVTISCSGSSSDIGSNYVSWYQQFPGTAPKLLIYDNNKRPSAIPDRFSGSKSGTSATLGITGLQTGDEADYYCGTWDSRLGIAVFGGGTQLTVLG	Inhibition of binding (%)	95.5%
